# Test system: pigweed (Amaranthus retroflexus)
# test.details: Test B postemergence
# Type: in vivo
# condition.notes: Rate 500 g/ha, scale 0 to 100, 0 is no effect, 100 is complete control, 13 to 15 days
Each entry below carries its recorded Plant response rating, Pigweed.

molecule	assay.metric	result
CC(C)(C)c1ccn(C2CCN(c3cccc(C(F)(F)F)c3)C2=O)n1 (stereo not drawn)	Plant response rating, Pigweed	90
CC(C)(C)c1ccn(C2SCN(c3cccc(OC(F)(F)F)c3)C2=O)n1 (stereo not drawn)	Plant response rating, Pigweed	100
CC(C)(C)c1ccn(C2SCN(c3cccc(OC(F)F)c3)C2=O)n1 (stereo not drawn)	Plant response rating, Pigweed	100

Q) Any idea what Plant response rating, Pigweed was measured for Cc1ccc(N2CCC(n3ccc(C(C)(C)C)n3)C2=O)cc1OCCCl (stereo not drawn) ?
A) 90

Q) Any idea what Plant response rating, Pigweed was measured for CCCC(C)c1ccn(C2OCN(c3cccc(OC(F)(F)F)c3)C2=O)n1 (stereo not drawn) ?
A) 90

Q) Any idea what Plant response rating, Pigweed was measured for CC(C)c1ccn(C2SCN(c3cccc(C(F)(F)F)c3)C2=O)n1 (stereo not drawn) ?
A) 100
